# System: VCaP cells
# assay_name: Cellular growth inhibition assay for VCaP cells, CellTiter-Glo
# Assay type: cell-based, human
# stated_conditions: 72 hours treatment, CellTiter-Glo 2.0
GI50 reference

Solved cases below.
-- ask Provide the documented GI50 with VCaP cells as the system for Cc1sc2c(c1C)C(c1ccc(C3CC(C4CCN(c5ncc(C(=O)N[C@H]6C(C)(C)[C@H](Oc7ccc(C#N)c(Cl)c7)C6(C)C)cn5)CC4)C3)cc1)=NC(C)c1nnc(C)n1-2 (stereo partly drawn) [Compound I-466]
-- reply > 3 µM

-- ask Provide the documented GI50 with VCaP cells as the system for Cc1sc2c(c1C)C(c1ccc(C3CC3C3CC4(CCN(c5ncc(C(=O)N[C@H]6C(C)(C)[C@H](Oc7ccc(C#N)c(Cl)c7)C6(C)C)cn5)CC4)C3)cc1)=N[C@@H](Cc1ncco1)c1nnc(C)n1-2 (stereo partly drawn)
-- reply < 0.5 µM

Now consider a different molecule.
-- ask Provide the documented GI50 with VCaP cells as the system for CC[C@@H]1N=C(c2ccc(CC3CCC4(C3)CN(c3ncc(C(=O)N[C@H]5C(C)(C)[C@H](Oc6ccc(C#N)c(Cl)c6)C5(C)C)cn3)CCO4)cc2)c2c(sc(C)c2C)-n2c(C)nnc21 (stereo partly drawn) [Compound I-614]
-- reply < 0.5 µM

====

# Test system: VCaP cells
# assay_name: Cellular growth inhibition assay for VCaP cells, CellTiter-Glo
# Assay type: cell-based, human
# stated_conditions: 72 hours treatment, CellTiter-Glo 2.0
measured_metric: GI50

Solved cases below.
-- ask Requested field: GI50. Item: Cc1sc2c(c1C)C(c1ccc(C(C)(C)N3CC4(CCN(c5ncc(C(=O)N[C@H]6C(C)(C)[C@H](Oc7ccc(C#N)c(Cl)c7)C6(C)C)cn5)CC4)C3)cc1)=N[C@@H](Cc1ncco1)c1nnc(C)n1-2 [Compound I-438]
-- reply 500 to 1500 nM

-- ask Requested field: GI50. Item: Cc1sc2c(c1C)C(c1ccc(C#C[C@H]3C[C@@]4(CCCN(c5ncc(C(=O)N[C@H]6C(C)(C)[C@H](Oc7ccc(C#N)c(Cl)c7)C6(C)C)cn5)C4)C3)cc1)=N[C@@H](C)c1nnc(C)n1-2 [Compound I-379]
-- reply < 500 nM

-- ask Requested field: GI50. Item: Cc1sc2c(c1C)C(c1ccc(C3CC(C4CCN(c5cnc(C(=O)N[C@H]6C(C)(C)[C@H](Oc7ccc(C#N)c(Cl)c7)C6(C)C)cn5)CC4)C3)cc1)=NC(C)c1nnc(C)n1-2 (stereo partly drawn) [Compound I-470]
-- reply < 500 nM

-- ask Requested field: GI50. Item: Cc1sc2c(c1C)C(c1ccc(CC3CC4(CCN(c5ccc(C(=O)N[C@H]6C(C)(C)[C@H](Oc7ccc(C#N)c(Cl)c7)C6(C)C)cn5)CC4)C3)cc1)=N[C@@H](Cc1ncco1)c1nnc(C)n1-2 [Compound I-143]
-- reply < 500 nM

-- ask Requested field: GI50. Item: Cc1sc2c(c1C)C(c1ccc(N3CCC4(CC3)CC(Cc3ncc(C(=O)N[C@H]5C(C)(C)[C@H](Oc6ccc(C#N)c(Cl)c6)C5(C)C)cn3)C4)cc1)=NC(Cc1ncco1)c1nnc(C)n1-2 (stereo partly drawn) [Compound I-459]
-- reply > 3000 nM

Now consider a different compound.
-- ask Requested field: GI50. Item: Cc1sc2c(c1C)C(c1ccc(CC3CCC4(C3)CN(c3ncc(C(=O)N[C@H]5C(C)(C)[C@H](Oc6ccc(C#N)c(Cl)c6)C5(C)C)cn3)CCO4)cc1)=N[C@@H](C)c1nnc(C)n1-2 (stereo partly drawn) [Compound I-620]
-- reply < 500 nM

====

# Tested on: T-Rex 293 cell line SC3 cells lacking increased expression of androgen receptor protein
# assay_name: Cellular growth inhibition, T-Rex 293 SC3 cells without doxycycline, CellTiter-Glo
# Assay type: cell-based
# stated_conditions: 72 h, T-Rex 293 SC3 cells not exposed to doxycycline, CellTiter-Glo 2.0
GI50 reference

Solved cases below.
-- ask Requested field: GI50. Item: Cc1sc2c(c1C)C(c1ccc(Oc3ncc(C(=O)N[C@H]4C(C)(C)[C@H](Oc5ccc(C#N)c(Cl)c5)C4(C)C)cn3)cc1)=N[C@@H](Cc1ncco1)c1nnc(C)n1-2
-- reply 500 to 1500 nM

-- ask Requested field: GI50. Item: Cc1sc2c(c1C)C(c1ccc(CN(C)C(=O)CCc3ncc(C(=O)N[C@H]4C(C)(C)[C@H](Oc5ccc(C#N)c(Cl)c5)C4(C)C)cn3)cc1)=N[C@@H](Cc1ncco1)c1nnc(C)n1-2
-- reply > 3000 nM

New cases:
-- ask Requested field: GI50. Item: Cc1sc2c(c1C)C(c1ccc(N3CCN(C4CCN(c5ncc(C(=O)N[C@H]6C(C)(C)[C@H](Oc7ccc(C#N)c(Cl)c7)C6(C)C)cn5)CC4)CC3)cc1)=NC(Cc1ncco1)c1nnc(C)n1-2 (stereo partly drawn)
-- reply < 500 nM

-- ask Requested field: GI50. Item: Cc1sc2c(c1C)C(c1ccc(C3CN(C4CCN(c5ncc(C(=O)N[C@H]6C(C)(C)[C@H](Oc7ccc(C#N)c(Cl)c7)C6(C)C)cn5)CC4)C3)cc1)=N[C@@H](Cc1ncco1)c1nnc(C)n1-2
-- reply < 500 nM

-- ask Requested field: GI50. Item: Cc1sc2c(c1C)C(c1ccc(O[C@@H]3CCC4(C3)CN(c3ncc(C(=O)N[C@H]5C(C)(C)[C@H](Oc6ccc(C#N)c(Cl)c6)C5(C)C)cn3)C4)cc1)=N[C@@H](Cc1ncco1)c1nnc(C)n1-2
-- reply < 500 nM

-- ask Requested field: GI50. Item: Cc1sc2c(c1C)C(c1ccc(-c3noc(C4CCN(c5ncc(C(=O)N[C@H]6C(C)(C)[C@H](Oc7ccc(C#N)c(Cl)c7)C6(C)C)cn5)CC4)n3)cc1)=N[C@@H](Cc1ncco1)c1nnc(C)n1-2
-- reply < 500 nM

-- ask Requested field: GI50. Item: CCNC(=O)C[C@@H]1N=C(c2ccc(N(C)CCC3CCN(c4ncc(C(=O)N[C@H]5C(C)(C)[C@H](Oc6ccc(C#N)c(Cl)c6)C5(C)C)cn4)CC3)cc2)c2c(sc(C)c2C)-n2c(C)nnc21
-- reply < 500 nM

-- ask Requested field: GI50. Item: CC[C@@H]1N=C(c2ccc(N3CC(CC4CCN(c5cnc(C(=O)N[C@H]6C(C)(C)[C@H](Oc7ccc(C#N)c(Cl)c7)C6(C)C)cn5)CC4)C3)cc2)c2c(sc(C)c2C)-n2c(C)nnc21
-- reply > 3000 nM

-- ask Requested field: GI50. Item: Cc1sc2c(c1C)C(c1ccc(C[C@@H]3CCCN(c4ncc(C(=O)N[C@H]5C(C)(C)[C@H](Oc6ccc(C#N)c(Cl)c6)C5(C)C)cn4)C3)cc1)=N[C@@H](Cc1ncco1)c1nnc(C)n1-2
-- reply 500 to 1500 nM

====

# Tested on: T47D cells
# assay_name: Cellular growth inhibition assay for T47D cells, CellTiter-Glo
# Type: cell-based, human
# stated_conditions: 72 hours treatment, CellTiter-Glo 2.0 cell viability
measured_metric: GI50

-- ask Requested field: GI50. Item: CC[C@@H]1N=C(c2ccc(CC3CCC4(C3)CN(c3ncc(C(=O)N[C@H]5C(C)(C)[C@H](Oc6ccc(C#N)c(Cl)c6)C5(C)C)cn3)CCO4)cc2)c2c(sc(C)c2C)-n2c(C)nnc21 (stereo partly drawn) [Compound I-614]
-- reply < 500 nM

New cases:
-- ask Requested field: GI50. Item: CC[C@@H]1N=C(c2ccc(CC3CCC4(C3)CN(c3ncc(C(=O)N[C@H]5C(C)(C)[C@H](Oc6ccc(C#N)c(Cl)c6)C5(C)C)cn3)CCO4)cc2)c2c(sc(C)c2C)-n2c(C)nnc21 (stereo partly drawn) [Compound I-615]
-- reply > 3000 nM

-- ask Requested field: GI50. Item: Cc1sc2c(c1C)C(c1ccc(N3CCC4(CC3)CC(Cc3ncc(C(=O)N[C@H]5C(C)(C)[C@H](Oc6ccc(C#N)c(Cl)c6)C5(C)C)cn3)C4)cc1)=NC(Cc1ncco1)c1nnc(C)n1-2 (stereo partly drawn) [Compound I-459]
-- reply 1500 to 3000 nM

-- ask Requested field: GI50. Item: Cc1sc2c(c1C)C(c1ccc(C#CC3CC4(CCCN(c5ncc(C(=O)N[C@H]6C(C)(C)[C@H](Oc7ccc(C#N)c(Cl)c7)C6(C)C)cn5)C4)C3)cc1)=NC1(CC1)c1nnc(C)n1-2
-- reply > 3000 nM

-- ask Requested field: GI50. Item: Cc1sc2c(c1C)C(c1ccc(C3CC(C4CCN(c5ncc(C(=O)N[C@H]6C(C)(C)[C@H](Oc7ccc(C#N)c(Cl)c7)C6(C)C)cn5)CC4)C3)cc1)=NC(C)c1nnc(C)n1-2 (stereo partly drawn) [Compound I-467]
-- reply < 500 nM

-- ask Requested field: GI50. Item: Cc1sc2c(c1C)C(c1ccc(C3CC3C3CC4(CCN(c5cnc(C(=O)N[C@H]6C(C)(C)[C@H](Oc7ccc(C#N)c(Cl)c7)C6(C)C)cn5)CC4)C3)cc1)=NC(Cc1ncco1)c1nnc(C)n1-2 (stereo partly drawn) [Compound I-540]
-- reply < 500 nM

-- ask Requested field: GI50. Item: Cc1sc2c(c1C)C(c1ccc([C@H]3C[C@@H]3CC3CCCN(c4ncc(C(=O)N[C@H]5C(C)(C)[C@H](Oc6ccc(C#N)c(Cl)c6)C5(C)C)cn4)C3)cc1)=NC(Cc1ncco1)c1nnc(C)n1-2 (stereo partly drawn) [Compound I-494]
-- reply < 500 nM

-- ask Requested field: GI50. Item: Cc1sc2c(c1C)C(c1ccc(C3CC(C4CCN(c5ncc(C(=O)N[C@H]6C(C)(C)[C@H](Oc7ccc(C#N)c(Cl)c7)C6(C)C)cn5)CC4)C3)cc1)=NC(C)c1nnc(C)n1-2 (stereo partly drawn) [Compound I-468]
-- reply < 500 nM

-- ask Requested field: GI50. Item: CC[C@@H]1N=C(c2ccc(CC3CCC4(C3)CN(c3ncc(C(=O)N[C@H]5C(C)(C)[C@H](Oc6ccc(C#N)c(Cl)c6)C5(C)C)cn3)CCO4)cc2)c2c(sc(C)c2C)-n2c(C)nnc21 (stereo partly drawn) [Compound I-612]
-- reply 1500 to 3000 nM
